# experiment description: Determination of the lethal dose 50 (MILLER and TAINTER)
# experimental setup: in vivo, ip
// reported LD50 for each item listed
readout kind: LD50 (mg/kg)

[[record]]
structure_string = "CC(=O)n1nc(C(=O)Nc2c(C)cccc2C)cc1C"
endpoint_result = 350

[[record]]
structure_string = "Cc1cccc(C)c1N(C)C(=O)c1cc(C)n(C)n1"
endpoint_result = 400

[[record]]
structure_string = "Cc1cc(NC(=O)c2c(C)cccc2C)no1"
endpoint_result = 2000

[[record]]
structure_string = "Cc1cccc(C)c1NC(=O)c1cc(COC(=O)c2ccccc2)on1"
endpoint_result = 2000

